# System: 8226 MM cell line
# protocol notes: MTT cytotoxicity assay, 8226 MM cells
# reported conditions: 48 hr MTT
assay endpoint: anti-MM cytotoxicity in MTT assay compared to parent B

structure smiles string: COC1(OC)C(Cl)=C(Cl)C(Cl)=C1Cl
value measured: poor activity
--
structure smiles string: ON=C1C(Cl)=C(Cl)C(Cl)=C1Cl
value measured: poor activity
